Where do the numbers come from? From PubChem BioAssay (NCI).

# experiment-notes: NCI Yeast Anticancer Drug Screen. Data for the rad50 strain (AID 155);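 further: 0% = growth of vehicle-only cultures of the same strain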
# test-parameters: S. cerevisiae rad50 strain growth inhibition; at 50.0 µM; stronger effect = higher value
About 79,000 compounds went through this panel and 15% of them were active in at least one assay; those are over-represented in the sample as a whole.
metric: growth inhibition (%)
Express the result in % but write the number alone.

CCCCCC(=O)OCC(COC(=O)CCCCC)OC(=O)CCCCC ... -2.65
CCn1c(C)nc2ccccc21 ... -12.7
O=C(Sc1c(-c2ccccc2)c(=O)n(-c2ccccc2)c(=S)n1-c1ccccc1)c1ccc(Cl)cc1 ... 2.75
OCC1=C(CO)CC=CC1 ... -21
COC(=O)CCc1nc2ccccc2c(=O)[nH]1 ... 6.45
CSC1NN=C(CCC(=O)Nc2ccc(C)cc2)O1 (centres undefined) ... -37.7

Q: What growth inhibition value was documented for this compound, Cc1ccc(S(=O)(=O)N/N=C2/CC3CCC2C3)cc1 (centres undefined) ?
Result: 5

Q: What growth inhibition value was documented for this compound, CCC1(C)N=C(N)Nc2nc3cc(C)c(C)cc3n21 (centres undefined) ?
Result: 15.2

Q: What growth inhibition value was documented for this compound, C/C(N=NC(=S)N1CC(C)OC(C)C1)=C1\C=CC=CN1O (centres undefined) ?
Result: -7.3

---

# growth inhibition values compiled below
# experiment-notes: NCI Yeast Anticancer Drug Screen. Data for the cln2 rad14 strain (AID 165);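 further: 0% = growth equal to vehicle treated cultures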
# test-parameters: S. cerevisiae cln2 rad14 strain, at 50.0 µM, stronger effect = higher value
The panel holds about 79,000 compounds, 15% with a hit somewhere; the sample as a whole holds those more often.
Express the result in % but write the number alone.

# example entries with known answers
Cc1ccc2c(c1)C1(OC(=O)c3ccccc31)c1ccc(F)cc1O2 (centres undefined) ... 36.8
CCCCOC(OCCCC)C(C)(C)CN(C)C ... 17.9

// next entry
Q: What growth inhibition value was documented for this compound, O=C(CCl)Nc1ccc(SSc2ccc(NC(=O)CCl)cc2)cc1 ?
Result: 43.2

---

# growth inhibition values compiled below
# experiment-notes: NCI Yeast Anticancer Drug Screen. Data for the bub3 strain (AID 167)
# test-parameters: S. cerevisiae bub3 mutant strain, at 50.0 µM, stronger effect = higher value
This is part of a sample that, as a whole, favours compounds with a hit. Of some 79,000 tested, about 15% had one in any assay.
Express the result in % but write the number alone.

Q: What growth inhibition value was documented for this molecule, CN(C)C1C(CO)OC(n2cnc3c(N)ncnc32)C1O (stereo unspecified) ?
Result: -11.8

---

# growth inhibition values compiled below
# experiment-notes: NCI Yeast Anticancer Drug Screen. Data for the rad50 strain (AID 155);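 further: 0% = growth of vehicle-only cultures of the same strain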
# test-parameters: S. cerevisiae rad50 strain growth inhibition; at 50.0 µM; stronger effect = higher value
This is part of a sample that, as a whole, favours compounds with a hit. Of some 79,000 tested, about 15% had one in any assay.
Express the result in % but write the number alone.

CC(=O)OCCn1c(C)nc2cc(Cl)c(Cl)cc21 ... 33.1

Q: What growth inhibition value was documented for this compound, [N-]=[N+]=N[Si](c1ccccc1)(c1ccccc1)c1ccccc1 ?
Result: -17.1

Q: What growth inhibition value was documented for this compound, C[N+]1(C)CCC(c2ccccc2)(c2ccccc2)/C(=C2/C(=O)C(c3ccccc3)(c3ccccc3)CC[N+]2(C)C)C1 ?
Result: -4.55

---

# growth inhibition values compiled below
# experiment-notes: NCI Yeast Anticancer Drug Screen. Data for the mec2-1 strain (AID 157)
# test-parameters: S. cerevisiae mec2-1 strain, at 50.0 µM, stronger effect = higher value
Compounds without any hit were thinned out: in the full panel of roughly 79,000, 15% have a hit. Activity calls are given as the source filed them. Rule as the data show it: active = growth inhibition above about 70%; inactive = the rest.

O=C1c2ccccc2-c2c1cccc2[N+](=O)[O-] ... 23.9% (inactive)
CN(C)CCCNc1ccc2nnn3c4ccc([N+](=O)[O-])cc4c(=O)c1c23 ... 35% (inactive)
CC1C(c2ccccc2)=C(c2ccccc2)C(c2ccccc2)=C(c2ccccc2)C1c1ccccc1 (centres undefined) ... -19.8% (inactive)
CCCCCCCCCCCCCBr ... -0.95% (inactive)
CCOC(=O)C(Cc1ccc([N+](=O)[O-])cc1)(Cc1ccc([N+](=O)[O-])cc1)C(=O)OCC ... -0.75% (inactive)
O=CC(=C\c1cccs1)/C(C=O)=C\c1cccs1 ... 99.5% (active)
CC1(C)CC(C)(C)c2c1oc(=O)c1c3c(oc(=O)c21)C(C)(C)CC3(C)C ... -9.1% (inactive)
CCCCCCCCCCCCCCCCCC(=O)N/N=C/c1ccc(O)cc1 ... -12.4% (inactive)

Q: What growth inhibition value was documented for this compound, CCc1nc(N)nc(N)c1-c1ccc(NCCN)c(N)c1 ?
Result: 6.35% (inactive)

Q: What growth inhibition value was documented for this compound, COC(=O)Nc1cccc(-c2nc3ccc(NC(=O)OC)cc3c(=O)n2-c2ccccc2)c1 ?
Result: -16.9% (inactive)

Q: What growth inhibition value was documented for this compound, O=Cc1[nH]c(=S)[nH]c(=O)c1Cc1cccc(Cl)c1 ?
Result: 35.2% (inactive)

Q: What growth inhibition value was documented for this compound, O=C(Oc1ccccc1)Oc1c(Cl)cc([N+](=O)[O-])cc1[N+](=O)[O-] ?
Result: 1.4% (inactive)

Q: What growth inhibition value was documented for this compound, O=C(O)c1c(Br)c(Br)c(Br)c(Br)c1C(=O)Nc1cccc2c(O)cccc12 ?
Result: 24.9% (inactive)

Q: What growth inhibition value was documented for this compound, CC(C)CCOC(=O)NC1c2ccccc2Oc2ccccc21 ?
Result: 3.55% (inactive)

Q: What growth inhibition value was documented for this compound, C/C=N\C(N)=S ?
Result: -1.3% (inactive)

Q: What growth inhibition value was documented for this compound, Cc1nn(-c2ccccc2)c(SC(C)(C)C)c1C=NCCN=Cc1c(C)nn(-c2ccccc2)c1SC(C)(C)C ?
Result: 15.3% (inactive)

---

# experiment-notes: NCI Yeast Anticancer Drug Screen. Data for the sgs1 mgt1 strain (AID 161);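 further: 0% = growth of cultures given vehicle only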
# test-parameters: S. cerevisiae sgs1 mgt1 strain, at 50.0 µM, stronger effect = higher value
This is part of a sample that, as a whole, favours compounds with a hit. Of some 79,000 tested, about 15% had one in any assay.
# growth inhibition values compiled below
Express the result in % but write the number alone.

# example entries with known answers
CCOC(=O)/C(O)=C(/C=NC(=S)c1ccncc1)C(=O)OCC ... -15.3
O=C(Nc1ccc(F)c([N+](=O)[O-])c1)N(Cc1ccccc1)c1ccccc1 ... 1.55
COC(=O)c1cc(-c2ccccc2)c2c(=O)n(-c3ccccc3)[nH]c2n1 ... 20.5
COc1cccc(C(=O)O)c1O ... -15.3
COc1ccc(NC2C(=O)C3(C)CCC2C3(C)C)cc1 (centres undefined) ... -8.25

Q: What growth inhibition value was documented for this compound, CS(=O)(=O)C(C#N)S(C)(=O)=O ?
Result: -6.05

Q: What growth inhibition value was documented for this compound, CC1OC(c2ccccc2)=CC(OCc2ccccc2)[C@H]1OCc1ccccc1 (some centres undefined) ?
Result: -19

Q: What growth inhibition value was documented for this compound, CCOC(=O)C1=C(C)NC(=O)NC1c1cccc(OC)c1O (centres undefined) ?
Result: 16.7

---

# experiment-notes: NCI Yeast Anticancer Drug Screen. Data for the sgs1 mgt1 strain (AID 161);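 further: 0% = growth of cultures given vehicle only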
# test-parameters: S. cerevisiae sgs1 mgt1 strain, at 50.0 µM, stronger effect = higher value
Compounds without any hit were thinned out: in the full panel of roughly 79,000, 15% have a hit.
metric: growth inhibition (%)
Express the result in % but write the number alone.

CCOC(=O)c1cnc(SCc2ccccc2)[nH]c1=O ... -17.7
S=c1sc2c(Cl)ncnc2n1-c1ccccc1 ... 13.2
C[N+](C)(C)c1ccc(C(N)C(=O)O)cc1 (stereo unspecified) ... -17.1
CC(C)c1cccc(C(C)(C)C)n1 ... -2.7
Cc1sc2nc3n(c(=O)c2c1C)N=C(c1ccc([N+](=O)[O-])cc1)CS3 ... -10.1
COc1ccc(/C(=N\O)c2nccc3cc(OC)c(OC)cc23)cc1OC ... 27.9

Q: What growth inhibition value was documented for this compound, Nc1nc(C2CCCCC2)cs1 ?
Result: 31.1

Q: What growth inhibition value was documented for this compound, CCCCCCCCCCCC(=O)CCCCCCCCCCC ?
Result: 2.75

Q: What growth inhibition value was documented for this compound, C=C(C)COB(OCC(=C)C)OCC(=C)C ?
Result: -2.25

Q: What growth inhibition value was documented for this compound, Nc1ccc2c(c1)C(=O)CCCC2 ?
Result: -2.15

Q: What growth inhibition value was documented for this compound, CCC(C)(O)C(=O)O (stereo unspecified) ?
Result: -32.4

---

# experiment-notes: NCI Yeast Anticancer Drug Screen. Data for the mlh1 rad18 strain (AID 175)
# test-parameters: S. cerevisiae mlh1 rad18 strain growth inhibition; at 50.0 µM; stronger effect = higher value
About 79,000 compounds went through this panel and 15% of them were active in at least one assay; those are over-represented in the sample as a whole.
# growth inhibition values compiled below
Express the result in % but write the number alone.

CNC(=O)OCc1c(COC(=O)NC)c(-c2ccccc2)n(-c2ccccc2)c1C ... 88.1
Nc1nc(Sc2ccc([N+](=O)[O-])c3nonc23)c2[nH]cnc2n1 ... 34.6
CC1=NC(=Cc2ccc(O)cc2)C(=O)N1n1c(-c2ccccc2)nc2ccccc2c1=O ... 3.45
O=C=Nc1cc(Cl)ccc1Cl ... 28.9

Q: What growth inhibition value was documented for this molecule, Nc1ncnc2c1ncn2-c1ccccc1 ?
Result: -17.4

Q: What growth inhibition value was documented for this molecule, Cc1ccc(C(C)C)c(OC2OC(C(=O)O)C(O)C(O)C2O)c1 (stereo not drawn) ?
Result: -10.4

Q: What growth inhibition value was documented for this molecule, CCOC(=O)/C(=C\c1ccc(OCc2ccccc2)c(OC)c1)C(=O)c1ccccc1 ?
Result: -15.3

Q: What growth inhibition value was documented for this molecule, Cc1cc(C)c(N)cc1C ?
Result: -2.5
